- System: Astrocytes (primary astroblasts from cerebral cortices of postnatal rats)
- Assay Protocol: Inhibition of astroglial cell proliferation, primary astroblasts
- Assay type: cell-based, rat
- Condition Details: Astrocytes, astroglia, rat; IC50 ± SE
Property: IC50 (µM)
Kindly provide the numeric value in µM only, without the unit symbol.

Kindly note the recorded IC50 for CCCCCCCC/C=C\CCCCCCCCO[C@H]1O[C@H](COS(=O)(=O)[O-])[C@@H](O)[C@H](OS(=O)(=O)[O-])[C@H]1NC(=O)C(F)(F)F.[K+].[K+] [Disulphated IG-20] , which is 30

* * *

- System: Astrocytes (primary astroblasts from cerebral cortices of postnatal rats)
- Assay Protocol: Inhibition of astroglial cell proliferation, primary astroblasts
- Format: cell-based, rat
- Condition Details: Astrocyte; Astrocytes, astroglia, rat; IC50 ± SE
Property: IC50 (µM)
Respond with the bare value in µM.

CCCCCCCC/C=C\CCCCCCCCO[C@H]1O[C@H](COS(=O)(=O)[O-])[C@@H](O)[C@H](O)C1NC(C)=O.[K+] (some centres unmarked) ... 9.3

// moving on: another record for IC50
Reported IC50 of `CCCCCCCC/C=C\CCCCCCCCO[C@H]1O[C@H](COS(=O)(=O)O)[C@@H](O)[C@H](O)[C@H]1NC(=O)CCCCCNc1ccc([N+](=O)[O-])c2nonc12` : 11.4

Origin of values: patent US20150307539A1
